test system: Immunoglobulin E (IgE) (Homo sapiens), P01854-1; test: filter; conditions: ARC2342 chemistry with 2'-OMe G8,G9,I16; 3' idT; DPBS Mg/Ca, BSA, RT
Sequence (P01854 other isoform, or with tags, fused parts or gaps): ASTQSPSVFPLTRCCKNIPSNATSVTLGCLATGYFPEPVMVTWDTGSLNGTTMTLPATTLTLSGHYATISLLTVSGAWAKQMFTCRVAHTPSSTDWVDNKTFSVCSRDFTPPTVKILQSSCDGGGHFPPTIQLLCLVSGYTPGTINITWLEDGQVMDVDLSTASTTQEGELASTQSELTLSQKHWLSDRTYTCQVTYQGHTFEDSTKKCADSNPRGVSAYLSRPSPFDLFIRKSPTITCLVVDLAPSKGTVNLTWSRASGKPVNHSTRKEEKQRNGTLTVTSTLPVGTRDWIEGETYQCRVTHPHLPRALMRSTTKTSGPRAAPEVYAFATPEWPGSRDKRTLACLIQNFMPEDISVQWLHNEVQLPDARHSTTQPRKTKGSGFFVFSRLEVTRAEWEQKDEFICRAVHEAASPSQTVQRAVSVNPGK
PROPERTY: Kd (pM)
API: value field is a number in pM; no unit string.

Per the records, this sequence ( AGCCUGGGNGACCCAUNNNGNNGNNGNCNUNN [ARC3275] ) has Kd equal to 670

###

system: Immunoglobulin E (IgE) (Homo sapiens), P01854-1; assay: filter; details: 2'-OMe at 1-4,7,33-37; PS 18-19; 3' idT [2'-OMe at 1-4,7,33-37; PS linkage 18-19 (internal N = PS, not a base); 3' inverted dT cap (terminal N, left out)]; DPBS Mg/Ca, BSA
PROPERTY: pKd
Hey, just a heads up that pKd is the negative log base 10 of the concentration in molar.

Per the records, this sequence ( GGGGCTACTTTATCCGTTCCTCCTAGTGGGTAGCCCC [ARC1401] ) has pKd equal to 8.70

###

tested on: Immunoglobulin E (IgE) (Homo sapiens), P01854-1; experiment: filter; conditions: 2'-F C and U; KD2 17.1 nM; 1xSHMCK + tRNA
PROPERTY: Kd (nM)
API: value field is a number in nM; no unit string.

Per the records, this sequence ( GGAGAUCCGAGGGUGGGCAAUAGGCUCACAAGGGUUU [rRfY minimer SEQ 93] ) has Kd equal to 0.65

###

system: Immunoglobulin E (IgE) (Homo sapiens), P01854-1; assay: filter; conditions: ARC1666 pattern with 2'-OMe G8 and 2'-OMe I16; 3' idT [inosine (written G) at 16 (2'-OMe I),18,20 (dI); 2'-OMe 1-5,7,8,10-17,22,23; deoxy 6,9,18-21; PS 8/9,15/16,16/17,18/19,20/21; 3' inverted dT left out]; dPBS Ca/Mg + BSA, RT
PROPERTY: pKd
Hey, just a heads up that pKd is the negative log base 10 of the concentration in molar.

Per the records, this sequence ( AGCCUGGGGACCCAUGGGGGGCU [ARC3266] ) has pKd equal to 8.89

###

system: Immunoglobulin E (IgE) (Homo sapiens), P01854-1; test: filter; details: dRmY: 2'-deoxy A,G; 2'-OMe C,U; 1xPBS, BSA, 1 mg/mL tRNA, ssDNA, 25 C
PROPERTY: pKd
Hey, just a heads up that pKd is the negative log base 10 of the concentration in molar.

I looked up GUUCUGGGGACCCAUGGGGGAAC [ARC442] and its pKd for Immunoglobulin E (IgE) (Homo sapiens), P01854-1 was 6.76

###

system: Immunoglobulin E (IgE) (Homo sapiens), P01854-1; assay: filter; details: 2'-OMe C,U and G6; other A,G deoxy; 3' idT [2'-OMe: 3,4,5,6,11,12,13,15,22,23; 2'-deoxy: 1,2,7,8,9,10,14,16,17,18,19,20,21; 24 = 3' inverted dT]; dPBS Ca/Mg + BSA, RT
PROPERTY: Kd (nM)
API: value field is a number in nM; no unit string.

Per the records, this sequence ( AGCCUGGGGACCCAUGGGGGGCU [ARC1252] ) has Kd equal to 98

###

tested on: Immunoglobulin E (IgE) (Homo sapiens), P01854-1; experiment: filter; conditions: dRmY: 2'-deoxy A,G; 2'-OMe C,U; error 2; dPBS Ca/Mg + BSA, RT
PROPERTY: Kd
Kindly write the number and append the unit.

Per the records, this sequence ( GGGAGAGGAGAGAACGUUCUACAUUGUGCUCCUGGGGCCCAGUGGGGAGCCACGCUGUCGAUCGAUCGAUCGAUG [ARC1995] ) has Kd equal to 4 nM

###

system: Immunoglobulin E (IgE) (Homo sapiens), P01854-1; assay: filter; conditions: ARC1666 chemistry + PS 4-5; 3' idT; DPBS Mg/Ca, BSA, RT
PROPERTY: pKd
Hey, just a heads up that pKd is the negative log base 10 of the concentration in molar.

Per the records, this sequence ( AGCCNUGGGNGACCCAUNNNGNNGNNGCUN [ARC2972] ) has pKd equal to 10.30

###

tested on: Immunoglobulin E (IgE) (Homo sapiens), P01854-1; assay: filter; settings: 2'-F C and U; biphasic, KD2 99.5 nM; 1xSHMCK + tRNA, RT
PROPERTY: Kd (nM)
API: value field is a number in nM; no unit string.

Per the records, this sequence ( GGGAAAAGCGAAUCAUACACAAGAGGUCUUACAGAUCCUGUGUAGUGGUUCGAUACAUGCGGGGCUCCGCCAGAGACCAACCGAGAA [rRfY clone SEQ 14] ) has Kd equal to 1.08

###

Listed below: IC50 values for each entry.
Target: Immunoglobulin E (IgE), cynomolgus (Macaca fascicularis)
Sequence: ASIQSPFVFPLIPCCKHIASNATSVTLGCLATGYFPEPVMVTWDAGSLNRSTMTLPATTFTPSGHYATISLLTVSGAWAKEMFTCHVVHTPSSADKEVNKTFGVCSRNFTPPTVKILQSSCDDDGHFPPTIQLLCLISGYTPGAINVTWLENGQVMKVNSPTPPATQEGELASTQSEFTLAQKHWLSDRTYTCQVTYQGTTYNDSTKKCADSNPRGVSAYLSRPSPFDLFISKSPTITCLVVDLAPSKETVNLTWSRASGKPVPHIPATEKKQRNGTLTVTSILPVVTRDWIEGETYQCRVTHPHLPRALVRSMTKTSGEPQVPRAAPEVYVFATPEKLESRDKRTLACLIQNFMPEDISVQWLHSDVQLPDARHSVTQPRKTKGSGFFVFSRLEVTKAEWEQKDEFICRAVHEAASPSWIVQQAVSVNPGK
Assay: inhibition
Settings: 2'-F C,U; no inhibition of monkey IgE-FceR1 up to 1 uM

SEQUENCE STRING: GGGAAAAGCGAAUCAUACACAAGACGUCGCCAGAUUGAGUGUCGUGGUU [rRfY minimer SEQ 90]
SYSTEM: Immunoglobulin E (IgE), cynomolgus (Macaca fascicularis)
REPORTED VALUE: > 1 µM

Let us move to another entry and its IC50.
Per the records, this sequence ( GGAGAUCCGAGGGUGGGCAAUAGGCUCACAAGGGUUU [rRfY minimer SEQ 93] ) has IC50 equal to > 1 µM

###

tested on: Immunoglobulin E (IgE) (Homo sapiens), P01854-1; assay: filter; conditions: ARC2342 chemistry with 2'-OMe G8,G9; 3' idT; DPBS Mg/Ca, BSA, RT
PROPERTY: Kd (nM)
API: value field is a number in nM; no unit string.

Per the records, this sequence ( AGCCUGGGNGACCCAUNNNGNNGNNGNCNUNN [ARC3272] ) has Kd equal to 0.12

###

tested on: Immunoglobulin E (IgE) (Homo sapiens), P01854-1; assay: filter; conditions: 2'-OMe/2'-deoxy mix, dI20, PS; 3' idT [20=dI (G parent); 24=3' inverted dT; phosphorothioate linkage N's left out (5^6, 7^8, 8^9, 15^16, 17^18, 18^19, 19^20, 20^21)]; DPBS Mg/Ca, 0.1 mg/mL BSA, RT
PROPERTY: Kd

Per the records, this sequence ( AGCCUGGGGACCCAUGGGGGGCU [ARC1643] ) has Kd equal to 1.1 nM

###

system: Immunoglobulin E (IgE) (Homo sapiens), P01854-1; assay: filter; details: ARC1666 pattern with 2'-OMe G9; 3' idT [dI (written G) at 16,18,20; 2'-OMe 1-5,7,9,10-15,17,22,23; deoxy 6,8,16,18-21; PS 8/9,15/16,16/17,18/19,20/21; 3' inverted dT left out]; dPBS Ca/Mg + BSA, RT
PROPERTY: Kd
Kindly write the number and append the unit.

Per the records, this sequence ( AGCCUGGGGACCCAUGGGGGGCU [ARC3263] ) has Kd equal to 0.026 nM

###

system: Immunoglobulin E (IgE) (Homo sapiens), P01854-1; test: filter; conditions: dRmY (2'-OMe C,U); 7-deaza-dG16 [7-deaza-dG at 16; 2'-OMe C3,C4,U5,C11,C12,C13,U15,C22,U23; A,G 2'-deoxy]; DPBS Mg/Ca, 0.1 mg/mL BSA, RT
PROPERTY: Kd (nM)
API: value field is a number in nM; no unit string.

Per the records, this sequence ( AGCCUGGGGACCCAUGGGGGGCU [ARC907] ) has Kd equal to 22

###

system: Immunoglobulin E (IgE) (Homo sapiens), P01854-1; experiment: filter; settings: 2'-OMe stem block as printed in Table 18; 3' idT [2'-OMe: stem block (exact positions not given in the material); 38 = 3' inverted dT]; DPBS Mg/Ca, BSA
PROPERTY: Kd

Per the records, this sequence ( GGGGCUACTTTATCCGTTCCTCCTAGTGGGUAGCCCC [ARC1303] ) has Kd equal to 1.3 nM
